Biological target: T1, monkey CD47ECD-linker peptide-7his (monkey)
T1 construct: also called Monkey CD47-his
T1 chain: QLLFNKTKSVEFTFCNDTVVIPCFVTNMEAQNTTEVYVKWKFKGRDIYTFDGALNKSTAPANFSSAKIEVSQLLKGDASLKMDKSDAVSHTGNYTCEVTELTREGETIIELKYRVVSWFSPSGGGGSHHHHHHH
Experiment: ELISA, monkey CD47-his coated at 1 µg/ml, cell culture supernatant
parameter: OD450 (OD450)
Report only the number, with the unit OD450 understood.

Record excerpt, results attached:
059-1.20.1 (antibody, mouse IgG1, V domains shown, also called 059-1.20.1 purified antibody) VH: EVQLQQSGPELVKPGASVNMSCKASGYTFTNYFLHWVKQKPGQGLEWIGYINPYNDGTNYNENFKGKATLTSDKSSSTAYMELSSLTSEDSAVYYCAKGGWFSMDYWGQGTSVTVSS VL: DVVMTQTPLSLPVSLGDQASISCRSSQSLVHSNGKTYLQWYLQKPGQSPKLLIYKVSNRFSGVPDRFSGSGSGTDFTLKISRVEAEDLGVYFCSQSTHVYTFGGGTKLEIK; 4
059-1.100.5 (antibody, mouse IgM, V domains shown, Mouse hybridoma antibody; light chain type kappa; also called 059-1.100.5 purified antibody) VH: QVQLQQSGAELVRPGASVTLSCKASGYTFTDYEMHWVKQTPVHGLEWIGAIDPETGGTAYNQNFKGKATLTADKSSSTAYMELRSLTSEDSAVYYCTRGTPYAMDYWGQGTSVTVSS VL: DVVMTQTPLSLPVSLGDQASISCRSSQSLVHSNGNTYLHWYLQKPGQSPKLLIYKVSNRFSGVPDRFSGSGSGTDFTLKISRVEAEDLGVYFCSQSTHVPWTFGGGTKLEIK; 0.617

# ---- query binder ----
Noted for 059-1.30.1 (antibody, mouse IgG1, V domains shown, also called 059-1.30.1 purified antibody) VH: EVQLQQSGPELVKPGASVRMSCKASGYTFTNYVMHWVKQKPGQGLEWIGYINPYNDGTKYSEKFKGKATLTSDKSSITAYMELSSLTSEDSAVYYCAKGGLFTFDYWGQGTTLTVSS VL: DVVMTQTPLSLPVSLGDQASISCRSSQSLVHSKGNTYLHWYLQKPGQSPKLLIYRVSNRFSGVPDRFSGSGSGTDFTLKISRVEAEDLGVYFCSQSTHVPFTFGSGTKLEIK : its OD450 reads 4
